Hello, the source for this data is patent US10683292B2, in case you need it.

Listed compounds paired with reported IC50
measurementTarget: Δ49N-hChoKα (Homo sapiens)
Construct: cDNA fragment 362-1534, corresponding to aminoacids 50-457; GST (N, cleaved yes); Prescission Protease recognition site (N, cleaved yes); made in house; host or cells: Escherichia coli BL21pLysS (DE3)
Sequence (P35790 50-457, stated change not applied): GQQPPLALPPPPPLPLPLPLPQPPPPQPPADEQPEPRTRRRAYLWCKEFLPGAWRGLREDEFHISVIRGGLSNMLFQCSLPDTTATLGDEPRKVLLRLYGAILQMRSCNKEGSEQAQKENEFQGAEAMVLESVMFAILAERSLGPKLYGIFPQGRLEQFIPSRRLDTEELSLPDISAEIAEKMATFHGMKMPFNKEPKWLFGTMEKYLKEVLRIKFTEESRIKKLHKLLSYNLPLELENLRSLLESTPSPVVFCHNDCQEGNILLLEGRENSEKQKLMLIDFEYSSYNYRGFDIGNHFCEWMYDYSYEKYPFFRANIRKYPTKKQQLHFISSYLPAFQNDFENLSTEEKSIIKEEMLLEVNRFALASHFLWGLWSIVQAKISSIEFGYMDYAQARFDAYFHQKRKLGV
experimentSummary: Biochemical kinase inhibition assay (Kinase-Glo Luminescent Kinase Assay) on Δ49N-hChoKα
settings: ATP 5 μM, choline 5 μM, 60 minutes at rt; read-out: IC50 ChoKα
The figure you give is taken to be in nM; do not add the unit.

Reported IC50, compound `COc1cccc(NC(=O)[C@H]2CC[C@@H](n3cnc4c(N)nc(-c5cccc(C(=O)Nc6ccc(CN7CCC(N(C)C)CC7)cc6)c5)nc43)CC2)c1` : ____
40

Now this one: `Nc1nc(Cl)nc2c1ncn2[C@H]1CC[C@@H](C(=O)Nc2ccc(C(=O)NC3CCCCC3)cc2)CC1`
375

Now this one: `Cc1csc(NC(=O)[C@H]2CC[C@@H](n3cnc4c(N)nc(-c5cccc(OCc6ccccc6)c5)nc43)CC2)n1`
248

Now this one: `COc1nc(N)c2ncn([C@H]3CC[C@@H](C(=O)Nc4nc(C)cs4)CC3)c2n1`
86

Now this one: `COc1cccc(NC(=O)N[C@H]2CC[C@@H](n3cnc4c(N)nc(Cl)nc43)CC2)c1`
306

Now this one: `Cc1csc(NC(=O)[C@H]2CC[C@H](n3cnc4c(N)nc(-c5cc[nH]n5)nc43)CC2)n1`
613

Now this one: `Cc1csc(NC(=O)[C@H]2CC[C@@H](n3cnc4c(N)nc(I)nc43)CC2)n1`
34

###

Listed molecules paired with reported IC50
measurementTarget: hChoKβ FL (Homo sapiens, UniProt Q9Y259)
Construct: hChoKβ full length (FL), corresponding to aminoacids 2-395; GST (N, cleaved yes); Prescission Protease recognition site (N, cleaved yes)
Sequence (Q9Y259 2-395): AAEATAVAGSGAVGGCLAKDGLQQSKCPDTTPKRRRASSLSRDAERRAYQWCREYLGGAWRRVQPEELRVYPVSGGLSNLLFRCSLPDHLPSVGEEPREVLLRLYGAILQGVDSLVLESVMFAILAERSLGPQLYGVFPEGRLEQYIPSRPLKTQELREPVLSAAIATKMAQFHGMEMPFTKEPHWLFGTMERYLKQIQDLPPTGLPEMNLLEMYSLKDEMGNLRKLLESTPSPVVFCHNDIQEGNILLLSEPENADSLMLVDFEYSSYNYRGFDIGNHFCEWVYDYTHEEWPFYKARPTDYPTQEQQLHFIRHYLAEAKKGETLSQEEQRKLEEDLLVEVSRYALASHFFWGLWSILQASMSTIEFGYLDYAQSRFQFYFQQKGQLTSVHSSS
experimentSummary: Biochemical kinase inhibition assay (Kinase-Glo Luminescent Kinase Assay) on hChoKβ FL
settings: ATP 5 μM, choline 20 μM, 60 minutes at rt; read-out: IC50 ChoKβ

Worked set:
INSERT INTO assay_data (smi, experimentalresult) VALUES
  ('Nc1nc(Cl)nc2c1ncn2[C@H]1CC[C@@H](C(=O)Nc2nc3ccc(CC(=O)O)cc3s2)CC1', '4.02 µM'),
  ('Nc1nc(Cl)nc2c1ncn2[C@H]1CC[C@@H](C(=O)Nc2nc3cc(F)c(F)c(F)c3s2)CC1', '5.8 µM'),
  ('Cc1csc(NC(=O)[C@H]2CC[C@@H](n3cnc4c(N)nc(C(N)=O)nc43)CC2)n1', '> 10 µM'),
  ('COc1nc(N)c2ncn([C@H]3CC[C@@H](C(=O)Nc4nc5ccc(F)cc5s4)CC3)c2n1', '> 10 µM'),
  ('Nc1nc(Cl)nc2c1ncn2[C@H]1CC[C@@H](C(=O)Nc2nccs2)CC1', '> 10 µM'),
  ('COc1nc(N)c2ncn([C@H]3CC[C@@H](C(=O)Nc4nc(C)cs4)CC3)c2n1', '> 10 µM');

Reported IC50, molecule `COc1cccc2sc(NC(=O)[C@H]3CC[C@@H](n4cnc5c(N)nc(I)nc54)CC3)nc12` : ____
> 10 µM

Now this one: `Nc1nc2ccc(OC(=O)[C@H]3CC[C@@H](n4cnc5c(N)nc(Cl)nc54)CC3)cc2s1`
7.04 µM
